Molecular target: protein kinases (human kinome) (Homo sapiens)
Sequence (Q00535 whole entry): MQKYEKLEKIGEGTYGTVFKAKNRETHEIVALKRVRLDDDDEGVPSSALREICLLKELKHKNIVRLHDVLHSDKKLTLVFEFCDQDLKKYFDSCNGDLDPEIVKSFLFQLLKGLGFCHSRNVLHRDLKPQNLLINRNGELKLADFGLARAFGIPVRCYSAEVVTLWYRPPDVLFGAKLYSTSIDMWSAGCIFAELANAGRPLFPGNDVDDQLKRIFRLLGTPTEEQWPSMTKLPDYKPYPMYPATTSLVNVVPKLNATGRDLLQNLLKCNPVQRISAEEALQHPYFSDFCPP
Format: cell-based
Settings: experiment wp016; direction of change down
Source text: Although development of targeted protein degraders requires a POI binder, among already-liganded proteins such as kinases, it was hypothesized that different targets would have a different propensity for current approaches to degrader-mediated destruction, which was termed ‘degradability’. […]
Recorded logFC CDK5 (Q00535) by entry
endpointName: logFC CDK5 (Q00535)

- compound: "CC(C)S(=O)(=O)c1ccccc1Nc1nc(Nc2ccc(N3CCN(CCOCCOCCNC(=O)CNc4ccc5c(c4)C(=O)N(C4CCC(=O)NC4=O)C5=O)CC3)cc2)ncc1Cl (stereo not drawn)"
  endpointName: "logFC CDK5 (Q00535)"
  readoutValue: "−0.8608"
- compound: "CC(C)S(=O)(=O)c1ccccc1Nc1nc(Nc2ccc(N3CCN(CCOCCNC(=O)CNc4cccc5c4C(=O)N(C4CCC(=O)NC4=O)C5=O)CC3)cc2)ncc1Cl (stereo not drawn)"
  endpointName: "logFC CDK5 (Q00535)"
  readoutValue: "−1.126"
- compound: "CC(C)S(=O)(=O)c1ccccc1Nc1nc(Nc2ccc(N3CCN(CCOCCOCCOCCNC(=O)CNc4cccc5c4C(=O)N(C4CCC(=O)NC4=O)C5=O)CC3)cc2)ncc1Cl (stereo not drawn)"
  endpointName: "logFC CDK5 (Q00535)"
  readoutValue: "−0.5732"
- compound: "CC(C)S(=O)(=O)c1ccccc1Nc1nc(Nc2ccc(N3CCN(CCOCCOCCNC(=O)CNc4cccc5c4C(=O)N(C4CCC(=O)NC4=O)C5=O)CC3)cc2)ncc1Cl (stereo not drawn)"
  endpointName: "logFC CDK5 (Q00535)"
  readoutValue: "−0.9261"
- compound: "CC(C)S(=O)(=O)c1ccccc1Nc1nc(Nc2ccc(N3CCN(CCOCCOCCOCCNC(=O)CNc4ccc5c(c4)C(=O)N(C4CCC(=O)NC4=O)C5=O)CC3)cc2)ncc1Cl (stereo not drawn)"
  endpointName: "logFC CDK5 (Q00535)"
  readoutValue: "−0.6254"
- compound: "CC(C)S(=O)(=O)c1ccccc1Nc1nc(Nc2ccc(N3CCN(CCOCCNC(=O)CNc4ccc5c(c4)C(=O)N(C4CCC(=O)NC4=O)C5=O)CC3)cc2)ncc1Cl (stereo not drawn)"
  endpointName: "logFC CDK5 (Q00535)"
  readoutValue: "−0.9703"

Cited source for all entries: patent US20240269139A1
